# Test system: PDE4B (Homo sapiens, UniProt Q07343)
# Construct: active site fragment comprising the amino acids 152-484
# Sequence (Q07343 324-656): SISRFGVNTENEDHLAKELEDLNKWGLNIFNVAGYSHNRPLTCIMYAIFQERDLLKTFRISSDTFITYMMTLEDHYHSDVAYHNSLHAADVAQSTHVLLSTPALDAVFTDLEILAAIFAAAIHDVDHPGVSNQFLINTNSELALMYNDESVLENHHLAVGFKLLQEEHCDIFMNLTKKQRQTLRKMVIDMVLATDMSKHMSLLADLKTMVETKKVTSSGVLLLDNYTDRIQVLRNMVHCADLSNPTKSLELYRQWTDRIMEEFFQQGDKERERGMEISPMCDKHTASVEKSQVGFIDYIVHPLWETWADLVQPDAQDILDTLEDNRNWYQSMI
# Protocol: PDE4B Scintillation Proximity (SPA) Assay
# Condition parameters: PDE4B active site fragment amino acids 152-484; [3H]cAMP; 30° C., one hour; read-out: Experimentally determined IC50-value for PDE4B inhibition
Quantity measured: IC50 (nM)

Req: Quick check: IC50 of CN1C[C@@H](Nc2nc(N3CCC(C#N)(c4ccccc4)CC3)nc3c2[S+]([O-])CC3)CCC1=O (stereo partly shown) [Example 1.10] ?
Resp: 3.5

Req: And for CN1C[C@@H](Nc2nc(N3CCC(Oc4ccc(C5=NCCO5)cc4)CC3)nc3c2[S+]([O-])CC3)CCC1=O (stereo partly shown) [Example 1.28] ?
Resp: 0.19

P: [O-][S+]1CCc2nc(N3CCC(Oc4ccc(C5=NCCO5)cc4)CC3)nc(NC3CCOCC3)c21 (stereo not shown) [Example 1.23]
Q: CN(C(=O)c1ccc(C2CCN(c3nc4c(c(NC5CCOCC5)n3)[S+]([O-])CC4)CC2)cc1)C1CC1 (stereo not shown) [Example 1.32]
R: Cc1oc(C2CCN(c3nc4c(c(N[C@H]5CCC(=O)N(C)C5)n3)[S+]([O-])CC4)CC2)nc1-c1ccccc1 (stereo partly shown) [Example 1.36]
S: [O-][S+]1CCc2nc(N3CCC(c4ccc(F)cc4F)CC3)nc(NC3(CO)CC3)c21 (stereo not shown) [Example 1.14]
T: [O-][S+]1CCc2nc(N3CCC(c4noc5cc(F)ccc45)CC3)nc(NC3(CO)CC3)c21 (stereo not shown) [Example 1.17]
Req: # rank_down: sort by IC50, max first Output spec: a listing of the labels in the requested order.
Resp: S, Q, T, P, R
